# Tested on: BT-549
# procedureText: NCI tumour cell line growth inhibition, 48 h
Calls of active or inactive are those of the source. No stated cut-off is given here; in the data, active = GI50 up to about 1.1 µM and inactive = higher.
quantityMeasured: GI50

> print(dat)
                                   compound  quantitymeasured               reading
1  CCc1nc(N)nc(N)c1-c1ccc(N2CCOCC2)c(N=[N+]=[N-])c1              GI50  > 78.2 µM (inactive)
2  Cc1ccc(C(=O)Nc2ccc(S(=O)(=O)O)c3cc(S(=O)(=O)O)cc(S(=O)(=O)O)c23)cc1N              GI50   > 100 µM (inactive)
3  O=C1CC(=O)NC(NN2C(=O)CSC2c2ccc(Cl)cc2)=N1 (stereo not given)              GI50    33.8 µM (inactive)
4  CCOC(=O)C(NC(=O)c1ccccc1)(N1CCN(c2cc3c(cc2F)c(=O)c(C(=O)O)cn3CC)CC1)C(F)(F)F (stereo not given)              GI50    35.9 µM (inactive)
5    CC1(C)C(c2ccccc2)=[N+]([O-])C(C)(C)N1O              GI50    > 10 µM (inactive)

---

# Tested on: HOP-92
# procedureText: NCI tumour cell line growth inhibition, 48 h
Calls of active or inactive are those of the source. Cut-off read from the data, not from the text of the source: active = GI50 up to about 1.1 µM and inactive = higher.
quantityMeasured: GI50

> print(dat)
                                    molecule  assaysystem               reading
 1               Nc1ccc(-c2nc3ccccc3s2)cc1CO       HOP-92  > 54.8 µM (inactive)
 2  O=C(CC1C(=O)Nc2ccccc2[S+]1[O-])Nc1ccc(Cl)cc1 (stereo unspecified)       HOP-92      29 µM (inactive)
 3  O=C(N(C1=CCCC1)N(c1ccccc1)c1ccccc1)C(F)(F)F       HOP-92    10.5 µM (inactive)
 4             O=C1C2=Cc3ccccc3CCN2c2ccccc21       HOP-92    28.8 µM (inactive)
 5  C/C=C(/CBr)CCC(Br)C(C)(C)Cl.C/C=C(\CBr)CCC(Br)C(C)(C)Cl (stereo unspecified)       HOP-92    > 10 µM (inactive)
 6  COC(=O)C(=O)C(C#N)c1ccc(Cl)c(Cl)c1 (stereo unspecified)       HOP-92   > 100 µM (inactive)
 7  COc1ccc(C(CC(=O)C(C)(C)CN2CCCCC2)SCCS(=O)(=O)O)cc1 (stereo unspecified)       HOP-92    17.8 µM (inactive)
 8  O=C1C(O)=C(CCCc2ccc(Oc3ccccc3)cc2)C(=O)c2ccccc21       HOP-92    12.9 µM (inactive)
 9           O/N=C1\CCc2nonc2\C1=N/Nc1ccccc1       HOP-92   > 100 µM (inactive)
10  CCOC(=O)C(NC(=O)c1ccccc1)(N1CCN(c2cc3c(cc2F)c(=O)c(C(=O)O)cn3CC)CC1)C(F)(F)F (stereo unspecified)       HOP-92    28.8 µM (inactive)
11  CC1(C)S[C@@H]2[C@H](NC(=O)/C=C/c3ccccc3)C(=O)N2[C@H]1C(=O)O       HOP-92   > 100 µM (inactive)
